biological target: Polyunsaturated fatty acid 5-lipoxygenase (Rattus norvegicus); test: Inhibition of 5-lipoxygenase in rat RBL1 cells
Sequence (P12527 whole entry): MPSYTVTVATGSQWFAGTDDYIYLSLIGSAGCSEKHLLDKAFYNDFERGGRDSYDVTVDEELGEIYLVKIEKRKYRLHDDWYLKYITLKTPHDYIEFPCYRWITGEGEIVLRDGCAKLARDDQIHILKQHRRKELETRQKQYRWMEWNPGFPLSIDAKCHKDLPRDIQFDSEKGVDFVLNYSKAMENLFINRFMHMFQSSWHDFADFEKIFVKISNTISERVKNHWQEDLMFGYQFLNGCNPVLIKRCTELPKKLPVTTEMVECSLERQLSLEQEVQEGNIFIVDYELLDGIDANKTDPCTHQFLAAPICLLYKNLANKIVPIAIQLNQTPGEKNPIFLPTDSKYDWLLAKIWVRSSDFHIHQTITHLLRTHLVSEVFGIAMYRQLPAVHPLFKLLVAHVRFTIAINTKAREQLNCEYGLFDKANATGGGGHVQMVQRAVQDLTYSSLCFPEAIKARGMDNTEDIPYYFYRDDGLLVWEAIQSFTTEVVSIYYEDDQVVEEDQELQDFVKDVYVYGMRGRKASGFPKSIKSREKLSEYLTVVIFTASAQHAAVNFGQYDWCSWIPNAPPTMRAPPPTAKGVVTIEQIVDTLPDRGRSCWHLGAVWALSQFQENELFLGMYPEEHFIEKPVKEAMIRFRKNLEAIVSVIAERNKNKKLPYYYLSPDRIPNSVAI
pIC50: −log10 of the molar value.
measure: pIC50

Worked cases, pIC50 given:
- COc1cc(/C=C/C(=O)c2ccccc2)cc(OC)c1OC: 4.80
- COc1ccc(OC)c(C(=O)/C=C/c2ccccc2)c1: 5.11
- COc1ccccc1/C=C/C(=O)c1ccccc1: 4.57
- CC(C)c1ccc(O)c(C(=O)/C=C/c2ccccc2)c1: 5.40
- CC(C)Oc1ccc(O)c(C(=O)/C=C/c2ccccc2)c1: 4.96

[A] CCOc1ccc(OC)cc1C(=O)/C=C/c1ccccc1
[B] COc1ccc(OC(C)C)cc1C(=O)/C=C/c1ccccc1
Hi team, can someone confirm which has the larger pIC50: A or B ? Thanks. Your choice should be expressed through its label.
B

[I] COc1ccc(O)c(C(=O)/C=C/c2ccccc2)c1
[II] Cc1ccc(/C=C/C(=O)c2ccccc2)cc1
[III] CCOc1ccc(O)c(C(=O)/C=C/c2ccccc2)c1
[IV] COc1ccc(/C=C/C(=O)c2ccccc2)c(OC)c1
[V] Cc1cc(C)c(/C=C/C(=O)c2ccccc2)c(C)c1
Ascending by pIC50, please: list the compounds accordingly. // rank by listing labels in the order requested
V, II, I, IV, III

[1] O=C(/C=C/c1ccccc1)c1cc(O)ccc1O
[2] CN(C)c1cccc(/C=C/C(=O)c2ccccc2)c1
[3] CN(C)c1ccc(/C=C/C(=O)c2ccccc2)cc1
[4] CCOc1ccc(OCC)c(C(=O)/C=C/c2ccccc2)c1
Order the records, beginning with the lowest pIC50 and ending with the highest. Answer format: the labels, in the requested order.
1, 2, 3, 4
(1: 4.19, 2: 5.01, 3: 5.33, 4: 5.62)

[P] COc1ccc(O)c(/C=C/C(=O)c2ccccc2)c1
[Q] COc1ccc(OC)c(/C=C/C(=O)c2ccccc2)c1
Which gives the smaller pIC50 number: P or Q ? Response format: the label of the selected entry.
P

Where these numbers come from: ChEMBL document CHEMBL2429716
